Reference for the values: patent US20210238260

Assayed System: Factor X (FX), P00742
Sequence (P00742 whole entry, looked up): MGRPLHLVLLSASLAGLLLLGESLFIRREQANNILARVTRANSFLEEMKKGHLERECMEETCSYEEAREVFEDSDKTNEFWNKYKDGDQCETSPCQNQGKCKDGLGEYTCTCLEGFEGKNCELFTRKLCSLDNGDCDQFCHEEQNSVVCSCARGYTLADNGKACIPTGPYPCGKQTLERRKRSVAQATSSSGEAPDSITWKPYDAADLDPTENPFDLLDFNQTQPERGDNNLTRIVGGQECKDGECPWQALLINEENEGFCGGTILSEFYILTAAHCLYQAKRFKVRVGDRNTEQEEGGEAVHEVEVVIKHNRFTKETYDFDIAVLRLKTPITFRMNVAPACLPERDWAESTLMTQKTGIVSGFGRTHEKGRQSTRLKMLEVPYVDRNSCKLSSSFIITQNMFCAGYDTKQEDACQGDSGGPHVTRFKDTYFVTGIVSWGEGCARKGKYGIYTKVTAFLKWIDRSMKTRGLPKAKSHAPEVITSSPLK

>  <Protein>
FIXa-N260S/R318Y/R338E/R403E/E410N (protein) chain 1: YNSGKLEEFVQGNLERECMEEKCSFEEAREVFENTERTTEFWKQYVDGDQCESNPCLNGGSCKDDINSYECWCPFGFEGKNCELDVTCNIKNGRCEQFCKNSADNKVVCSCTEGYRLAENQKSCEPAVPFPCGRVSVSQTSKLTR chain 2: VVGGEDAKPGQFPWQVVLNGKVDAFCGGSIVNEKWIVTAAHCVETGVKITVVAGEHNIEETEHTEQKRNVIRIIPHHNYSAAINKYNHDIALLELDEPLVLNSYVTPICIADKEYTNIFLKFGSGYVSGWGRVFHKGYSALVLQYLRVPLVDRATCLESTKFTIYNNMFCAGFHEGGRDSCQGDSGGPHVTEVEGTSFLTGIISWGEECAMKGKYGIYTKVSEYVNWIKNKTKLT

>  <U>
µM

>  <KM>
0.0724

$$$$
>  <Protein>
FIXa-R318Y/R338E/T412A (protein) chain 1: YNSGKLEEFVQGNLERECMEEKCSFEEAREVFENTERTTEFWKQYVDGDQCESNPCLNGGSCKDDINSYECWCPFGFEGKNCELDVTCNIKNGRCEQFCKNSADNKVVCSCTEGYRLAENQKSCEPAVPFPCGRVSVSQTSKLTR chain 2: VVGGEDAKPGQFPWQVVLNGKVDAFCGGSIVNEKWIVTAAHCVETGVKITVVAGEHNIEETEHTEQKRNVIRIIPHHNYNAAINKYNHDIALLELDEPLVLNSYVTPICIADKEYTNIFLKFGSGYVSGWGRVFHKGYSALVLQYLRVPLVDRATCLESTKFTIYNNMFCAGFHEGGRDSCQGDSGGPHVTEVEGTSFLTGIISWGEECAMKGKYGIYTKVSRYVNWIKEKAKLT

>  <U>
µM

>  <KM>
0.0235

$$$$
>  <Protein>
FIXa-K247N/N249S/R318Y/R338E/T343R/R403E/E410N (protein) chain 1: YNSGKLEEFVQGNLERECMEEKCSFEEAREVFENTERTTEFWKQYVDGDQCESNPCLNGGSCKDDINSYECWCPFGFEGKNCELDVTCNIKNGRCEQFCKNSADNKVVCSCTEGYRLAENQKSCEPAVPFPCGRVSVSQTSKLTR chain 2: VVGGEDAKPGQFPWQVVLNGKVDAFCGGSIVNEKWIVTAAHCVETGVKITVVAGEHNIEETEHTEQNRSVIRIIPHHNYNAAINKYNHDIALLELDEPLVLNSYVTPICIADKEYTNIFLKFGSGYVSGWGRVFHKGYSALVLQYLRVPLVDRATCLESTKFRIYNNMFCAGFHEGGRDSCQGDSGGPHVTEVEGTSFLTGIISWGEECAMKGKYGIYTKVSEYVNWIKNKTKLT

>  <U>
µM

>  <KM>
0.0292

$$$$
>  <Protein>
FIXa-D104N/K106S/N260S/R318Y/R338E/R403E/E410N (protein) chain 1: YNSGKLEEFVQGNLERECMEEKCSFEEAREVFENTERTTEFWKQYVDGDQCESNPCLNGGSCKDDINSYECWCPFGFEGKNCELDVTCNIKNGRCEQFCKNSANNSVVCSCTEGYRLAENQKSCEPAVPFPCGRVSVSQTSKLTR chain 2: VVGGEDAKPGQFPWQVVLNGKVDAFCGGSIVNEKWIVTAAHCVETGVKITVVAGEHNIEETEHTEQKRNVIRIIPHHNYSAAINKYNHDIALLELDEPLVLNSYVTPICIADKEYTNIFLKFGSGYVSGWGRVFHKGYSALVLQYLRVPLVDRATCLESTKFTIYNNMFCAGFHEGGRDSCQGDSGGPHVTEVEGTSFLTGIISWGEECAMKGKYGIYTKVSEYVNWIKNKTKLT

>  <U>
µM

>  <KM>
0.0611

$$$$
